organism: Rattus norvegicus; assay: Open TG-GATES - Regimen: Single; assay type: toxicity, organism-based, Sprague-Dawley; parameters: regimen Single, gender Male, age 6 weeks; conditions: in vivo, po, 0 mg/kg, 9 h, tissue Blood, route gavage, dose level Control
Entries and their Fbg values follow.
Report the figure in mg/dL without appending any unit label.

See these solved cases before continuing.
>  <MOLECULE>
CN(C)[C@@H]1C(O)=C(C(N)=O)C(=O)[C@@]2(O)C(O)=C3C(=O)c4c(O)cccc4[C@@](C)(O)[C@H]3C[C@@H]12 [TETRACYCLINE]

>  <Fbg, mg/dL>
211.6

$$$$
>  <MOLECULE>
COc1cc([C@@H]2c3cc4c(cc3[C@@H](O[C@@H]3O[C@@H]5CO[C@@H](C)O[C@H]5[C@H](O)[C@H]3O)[C@H]3COC(=O)[C@H]23)OCO4)cc(OC)c1O [ETOPOSIDE]

>  <Fbg, mg/dL>
206

$$$$

Recorded Fbg of CC(=O)Nc1nnc(S(N)(=O)=O)s1 [ACETAZOLAMIDE] , please. 293

Item: C#C[C@]1(O)CC[C@H]2[C@@H]3CCC4=Cc5oncc5C[C@]4(C)[C@H]3CC[C@@]21C [DANAZOL] 295.4
